# System: U-251
# testDetails: NCI tumour cell line growth inhibition, 48 h
Activity calls are given as the source filed them. No stated cut-off is given here; in the data, active = GI50 up to about 1.1 µM and inactive = higher.
endpointLabel: GI50

Worked examples follow.
CCSC1(SCC)CC(Cc2ccc(OC)cc2)N(/C=N/C(C)(C)C)C1 (configuration not stated) | 19.1 µM (inactive)
O=c1c(C(c2cnc3ccccc3c2)c2c(O)oc3ccccc3c2=O)c(O)oc2ccccc12 | 29 µM (inactive)
C#CCOCC12C=CC(O1)C1COC(=O)C12 (configuration not stated) | > 100 µM (inactive)
COc1ccc2c(c1)CCC1=CC3(CCC12C)SCCS3 (configuration not stated) | 9.73 µM (inactive)
N#CS/C(Cl)=C(/C(Cl)=C(Cl)Cl)[N+](=O)[O-] | 35.8 µM (inactive)
CC1(C)CC(O)C2=C(O1)C(=O)c1ncccc1C2=O (configuration not stated) | 1.75 µM (inactive)
COC(=O)C1=NN2c3ccccc3CN([C@@H](C)c3ccccc3)C(=O)[C@@H]2C1 | 40.7 µM (inactive)
C=CCC1(CN(C)C)CC/C(=C\c2cc(OC)c(OC)c(OC)c2)C1=O (configuration not stated) | 23 µM (inactive)

Quick one: GI50 for O=C1O[B-](c2ccccc2)(c2ccccc2)[NH+]2CCCC12 (configuration not stated) ? > 100 µM (inactive)

Quick one: GI50 for Cc1cccc(N2C(=O)C(Cl)=C(Cl)C2=O)c1 ? > 100 µM (inactive)

Quick one: GI50 for O=C(c1ccccc1)c1c(C(=O)c2ccccc2)c(-c2ccccc2)c2c(-c3ccccc3)sc(-c3ccccc3)c2c1-c1ccccc1 ? > 100 µM (inactive)

Quick one: GI50 for COc1ccc(-n2c(N)c(C#N)c(C#N)c2-c2ccco2)cc1 ? > 100 µM (inactive)

Quick one: GI50 for COC(=N)/C(=C1\OC(=N)C(c2ccc(Cl)cc2)=C1O)c1ccc(Cl)cc1 ? > 100 µM (inactive)

Quick one: GI50 for COC(=O)[C@@H]1C(=O)O[C@@H](c2ccc3c(c2)OCO3)[C@@H]1C(=O)OC.COC(=O)[C@H]1C(=O)O[C@@H](c2ccc3c(c2)OCO3)[C@@H]1C(=O)OC ? > 100 µM (inactive)

Quick one: GI50 for COc1ccc(C2CCc3cc4c(cc3/C2=N/OC(C)=O)OCO4)cc1OC (configuration not stated) ? 23.8 µM (inactive)

Quick one: GI50 for Cc1ccc(NC(=O)C(=O)C2C(=O)N(c3ccccc3)N=C2N)cc1C (configuration not stated) ? > 100 µM (inactive)

Quick one: GI50 for CC[C@H](C)C1=C(OC(C)=O)[N@+]2([O-])Oc3ccc(-c4c(O)c(O)c(-c5ccc(OC(C)=O)cc5)c(OC(C)=O)c4OC(C)=O)cc3O[C@]2([C@@H](C)CC)C(=O)N1O ? 24.3 µM (inactive)

Quick one: GI50 for CCOC(=O)/C(C(=O)Nc1ccc(F)cc1)=C(/N)N1CCCC1 ? > 100 µM (inactive)

Quick one: GI50 for Nc1ccn(C2OC(C(OC3OC(CO)C(O)C(N)C3O)C(O)C(O)C(O)C(O)CO)C(N)C(O)C2O)c(=O)n1 (configuration not stated) ? > 100 µM (inactive)

----------
# Test system: DMS-273
# testDetails: NCI tumour cell line growth inhibition, 48 h
The source made the active and inactive calls. Rule as the data show it: active = GI50 up to about 1.1 µM and inactive = higher.
One label from this list, please: TRUE for active, FALSE for inactive

CC(C)(C)[C@H]1CO[C@]2(C)[C@@H]3C[C@@H]3C(=O)N12 | FALSE
O=C(c1ccccc1)c1c(C(=O)c2ccccc2)c(-c2ccccc2)c2c(-c3ccccc3)sc(-c3ccccc3)c2c1-c1ccccc1 | FALSE
O=C1C=C(N2CC2)C(=O)C=C1N1CC1 | TRUE
C=CCN(N=O)C(=O)ON1C(=O)CCC1=O | FALSE
CC[P+]1(c2ccccc2)CCCCC1 | FALSE

Record lookup: outcome of this test for N#CC12CC3(CCC1CCC1(C2)OCCO1)OCCO3 (configuration not stated) ? FALSE

Record lookup: outcome of this test for COc1ccccc1/C=C\c1cc(OC)c(OC)c(OC)c1 ? FALSE
